biological target: D(1B) dopamine receptor (Homo sapiens, UniProt P21918); assay: Binding affinity to human dopamine D5 receptor
Sequence (P21918 whole entry): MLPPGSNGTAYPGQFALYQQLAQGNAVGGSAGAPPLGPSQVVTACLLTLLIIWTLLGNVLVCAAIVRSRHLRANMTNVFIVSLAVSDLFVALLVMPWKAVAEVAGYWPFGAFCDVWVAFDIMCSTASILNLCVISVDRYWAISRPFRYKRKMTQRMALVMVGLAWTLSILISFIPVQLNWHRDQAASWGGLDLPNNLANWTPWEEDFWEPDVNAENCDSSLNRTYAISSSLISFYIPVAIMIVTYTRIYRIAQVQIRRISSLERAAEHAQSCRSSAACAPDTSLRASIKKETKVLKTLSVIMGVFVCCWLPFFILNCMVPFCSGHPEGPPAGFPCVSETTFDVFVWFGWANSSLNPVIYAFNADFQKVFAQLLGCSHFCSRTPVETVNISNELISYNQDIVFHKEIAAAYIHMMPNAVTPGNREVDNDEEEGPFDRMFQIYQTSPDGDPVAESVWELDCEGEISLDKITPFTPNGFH
observable: Ki (µM)
// note: answer is a bare numeric in µM

Kindly note: D(1B) dopamine receptor (Homo sapiens, UniProt P21918), CCCN(CCC)CCc1cccc2c1CC(=O)N2 , Ki value reported: 41.2

---

target: D(2) dopamine receptor (Homo sapiens, UniProt P14416); assay: Binding affinity to human dopamine D2 receptor
Sequence (P14416 whole entry): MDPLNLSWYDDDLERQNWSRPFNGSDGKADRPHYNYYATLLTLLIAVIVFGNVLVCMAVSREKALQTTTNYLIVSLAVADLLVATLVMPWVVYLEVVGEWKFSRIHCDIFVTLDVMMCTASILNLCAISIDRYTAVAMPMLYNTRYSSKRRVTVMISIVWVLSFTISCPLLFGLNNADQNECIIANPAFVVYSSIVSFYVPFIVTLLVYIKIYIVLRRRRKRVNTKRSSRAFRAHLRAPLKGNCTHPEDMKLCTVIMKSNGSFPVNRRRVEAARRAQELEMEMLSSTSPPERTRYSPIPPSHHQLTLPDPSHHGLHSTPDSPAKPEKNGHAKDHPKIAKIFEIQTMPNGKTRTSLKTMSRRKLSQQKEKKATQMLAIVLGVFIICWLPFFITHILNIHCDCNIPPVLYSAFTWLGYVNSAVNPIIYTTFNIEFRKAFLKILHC
observable: Ki (nM)
// note: answer is a bare numeric in nM

Recorded Ki (molecule CCCN(CCC)CCc1cccc2c1CC(=O)N2 ): 3.7

---

target: D(1A) dopamine receptor (Homo sapiens, UniProt P21728); assay: Binding affinity to human dopamine D1 receptor
Sequence (P21728 whole entry): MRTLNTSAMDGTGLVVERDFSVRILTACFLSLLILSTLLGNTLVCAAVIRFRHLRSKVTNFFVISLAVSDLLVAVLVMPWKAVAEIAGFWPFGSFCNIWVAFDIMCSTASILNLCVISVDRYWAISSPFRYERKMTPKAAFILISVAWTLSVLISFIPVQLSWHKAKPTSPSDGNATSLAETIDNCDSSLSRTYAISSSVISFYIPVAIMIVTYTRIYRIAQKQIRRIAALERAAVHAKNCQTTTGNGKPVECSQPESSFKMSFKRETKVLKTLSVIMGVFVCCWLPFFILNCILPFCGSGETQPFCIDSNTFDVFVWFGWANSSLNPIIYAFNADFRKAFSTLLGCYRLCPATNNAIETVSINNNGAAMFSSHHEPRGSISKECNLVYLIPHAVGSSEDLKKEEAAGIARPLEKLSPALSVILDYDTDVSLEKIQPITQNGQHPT
observable: Ki
Reply with the number and its unit after it.

Recorded Ki (compound CCCN(CCC)CCc1cccc2c1CC(=O)N2 ): 32.5 µM
